Below, each entry is listed with its recorded IC50.
biological target: Arachidonate 5-lipoxygenase (Bos taurus); assay: 5-LO inhibitory activity was determined by inhibition of LTB4 biosynthesis in bovine polymorphonuclear leukocytes (PMNL)
Sequence (Q9BEG3 whole entry): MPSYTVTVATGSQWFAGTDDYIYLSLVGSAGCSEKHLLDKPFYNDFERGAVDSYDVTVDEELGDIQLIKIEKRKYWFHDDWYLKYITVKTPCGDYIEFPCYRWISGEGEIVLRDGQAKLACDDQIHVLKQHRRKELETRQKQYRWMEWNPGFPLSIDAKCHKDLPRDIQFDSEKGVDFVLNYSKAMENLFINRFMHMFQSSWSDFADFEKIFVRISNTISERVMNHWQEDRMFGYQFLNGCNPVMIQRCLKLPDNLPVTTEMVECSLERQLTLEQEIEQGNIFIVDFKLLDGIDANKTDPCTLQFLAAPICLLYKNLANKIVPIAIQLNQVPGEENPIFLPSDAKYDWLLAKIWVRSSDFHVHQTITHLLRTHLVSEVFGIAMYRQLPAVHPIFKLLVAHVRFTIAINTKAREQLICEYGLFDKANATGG

Known results for molecules:
- O=C1c2c(O)cccc2C(C2c3cccc(O)c3C(=O)c3c(O)cccc32)c2cccc(O)c21: > 30 µM
- COc1cccc2c1Cc1c(OC)cccc1C2=O: 8 µM
- c1ccc2c(c1)Cc1ccccc1C2: > 30 µM

Which measured IC50 value corresponds to O=C1c2c(O)cccc2C(Cc2ccccc2)c2cccc(O)c21 ?
> 30 µM

* * *

experiment: Antioxidant potential was assessed from reducing activity against 2,2,di-phenyl-1-picrylhydrazyl.
MEASUREMENT NAME: kDPPH

Known results for compounds:
* CCC(=O)c1ccc2c(c1O)C(=O)c1c(O)cccc1C2 | > 100 M⁻¹ s⁻¹
* O=C1c2c(O)cccc2C(SCc2ccccc2)c2cccc(O)c21 | > 100 M⁻¹ s⁻¹
* O=C(O)c1cc(O)c2c(c1)Cc1cccc(O)c1C2=O | > 100 M⁻¹ s⁻¹
* O=Cc1ccc2c(c1O)C(=O)c1c(O)cccc1C2 | > 100 M⁻¹ s⁻¹

Which measured kDPPH value corresponds to O=C1c2cccc(O)c2Cc2c(O)cccc21 ?
< 2 M⁻¹ s⁻¹

* * *

experiment: Antioxidant potential was assessed from reducing activity against 2,2,di-phenyl-1-picrylhydrazyl.
MEASUREMENT NAME: kDPPH

Known results for molecules:
- O=C1c2ccccc2Cc2c1ccc(O)c2O: > 100 M⁻¹ s⁻¹
- O=C1c2c(O)cccc2C(C2c3cccc(O)c3C(=O)c3c(O)cccc32)c2cccc(O)c21: < 1 M⁻¹ s⁻¹
- O=C1c2c(O)cccc2C([C@@H]2O[C@H](CO)[C@@H](O)[C@H](O)[C@H]2O)c2cc(CO)cc(O)c21 (some centres not stated): < 2 M⁻¹ s⁻¹
- COc1cccc2c1Cc1c(O)cccc1C2=O: < 2 M⁻¹ s⁻¹
- COc1cccc2c1Cc1c(OC)cccc1C2=O: < 2 M⁻¹ s⁻¹

Which measured kDPPH value corresponds to O=C1c2c(O)cccc2C(O)c2cccc(O)c21 ?
< 2 M⁻¹ s⁻¹

Which measured kDPPH value corresponds to O=C1c2c(O)cccc2C(Cc2ccccc2)c2cccc(O)c21 ?
< 2 M⁻¹ s⁻¹
